Target: Vasopressin V2 (Rattus norvegicus)
Experiment: Vasopressin V2 agonist effects in normal conscious water-loaded rats
Format: in vivo
Design: from tissue; host or cells: whole living Sprague-Dawley rat; the receptor is the animal's own (renal, by own knowledge)
Details: Sprague-Dawley (CD) rats, 10 mg/kg oral, vs. control, urine collected four hours
Outcome label depends on Urine Volume (% decrease) relative to 50%: at/above gives satisfied, below gives not satisfied.

The examples below pair each entry with its known result.
• O=C(c1ccc(-n2cncn2)cc1C(F)(F)F)N1Cc2cccn2Cc2ccccc21 [Example 7] = not satisfied
• Cc1cnn(-c2ccc(C(=O)N3Cc4cccn4Cc4ccccc43)cc2)c1 [Example 60] = satisfied
• O=C(c1ccc(-c2ncn[nH]2)cc1Cl)N1Cc2cccn2Cc2ccccc21 [Example 83] = satisfied
• CCC(=O)n1ccc(-c2ccc(C(=O)N3Cc4cccn4Cc4ccccc43)cc2)n1 [Example 31] = satisfied

Inquiry: Say whether Cc1cn(-c2ccc(C(=O)N3Cc4cccn4Cc4ccccc43)c(C(F)(F)F)c2)cn1 [Example 6] shows Urine Volume (% decrease) of 50% or more.
Reply text: satisfied

---

Molecular target: Vasopressin V2 (Rattus norvegicus, UniProt Q00788)
Sequence (Q00788 whole entry): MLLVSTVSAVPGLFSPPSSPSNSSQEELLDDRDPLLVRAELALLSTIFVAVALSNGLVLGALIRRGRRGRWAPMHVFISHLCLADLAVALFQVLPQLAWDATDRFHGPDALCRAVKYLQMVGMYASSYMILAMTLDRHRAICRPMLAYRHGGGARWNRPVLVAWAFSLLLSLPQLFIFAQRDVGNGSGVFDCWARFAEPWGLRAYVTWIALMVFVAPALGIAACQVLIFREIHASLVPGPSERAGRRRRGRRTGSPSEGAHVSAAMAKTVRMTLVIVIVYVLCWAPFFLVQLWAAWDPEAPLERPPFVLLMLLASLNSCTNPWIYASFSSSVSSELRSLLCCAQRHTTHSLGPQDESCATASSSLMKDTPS
Assay: Vasopressin V2 agonist effects in normal conscious water-loaded rats
Assay type: in vivo
Set-up: from tissue; host or cells: whole living Sprague-Dawley rat; the receptor is the animal's own (renal, by own knowledge)
Conditions: Sprague-Dawley (CD) rats, 10 mg/kg oral, change in osmolality as percent of control
Assay metric: Osmolality (% Increase) (%)
Numeric only. Scale: %

Reference set (5 entries):
- Cc1ccn(-c2ccc(C(=O)N3Cc4ccnn4Cc4ccccc43)c(C(F)(F)F)c2)n1: 300
- O=C(c1ccc(-n2ccc(C(F)(F)F)n2)cc1)N1Cc2cccn2Cc2ccccc21: 150
- O=C(c1ccc(-c2ccn(C(=O)Cc3ccc(Cl)cc3Cl)n2)cc1)N1Cc2cccn2Cc2ccccc21: 253
- CCn1ccc(-c2ccc(C(=O)N3Cc4cccn4Cc4ccccc43)cc2)n1: 279
- CCCn1ccc(-c2ccc(C(=O)N3Cc4cccn4Cc4ccccc43)cc2)n1: 183

Record for "Cc1cn(-c2ccc(C(=O)N3Cc4cccn4Cc4ccccc43)c(Cl)c2)cn1" under target or system Vasopressin V2 (Rattus norvegicus, UniProt Q00788): Osmolality (% Increase) reported as 330

The measured Osmolality (% Increase) that "Cc1cn(-c2ccc(C(=O)N3Cc4cccn4Cc4ccccc43)cc2)cn1" showed for Vasopressin V2 (Rattus norvegicus, UniProt Q00788) is 349

---

Each record here notes measured Osmolality (% Increase).
Target: Vasopressin V2 (Rattus norvegicus)
Assay: Vasopressin V2 agonist effects in normal conscious water-loaded rats
Format: in vivo
Parameters: from tissue; host or cells: whole living Sprague-Dawley rat; the receptor is the animal's own (renal, by own knowledge)
Conditions: Sprague-Dawley (CD) rats, 10 mg/kg oral, change in osmolality as percent of control
Report the value in % with no unit label.

Some compounds with known Osmolality (% Increase) results, for comparison:
- Cc1cnn(-c2ncc(C(=O)N3Cc4cccn4Cc4ccccc43)c(C(F)(F)F)n2)c1 [Example 21]: 181
- Cc1cnn(-c2ccc(C(=O)N3Cc4cccn4Cc4ccccc43)c(Cl)c2)c1 [Example 11]: 285
- Cc1cnn(-c2ccc(C(=O)N3Cc4cccn4Cc4ccccc43)c(C(F)(F)F)c2)c1 [Example 3]: 240

Form field, Osmolality (% Increase) with Vasopressin V2 (Rattus norvegicus), item Cc1ccn(-c2ccc(C(=O)N3Cc4ccnn4Cc4ccccc43)c(Cl)c2)n1 [Example 116] : 256

---

Target: Vasopressin V2 (Rattus norvegicus)
Assay: Vasopressin V2 agonist effects in normal conscious water-loaded rats
Format: in vivo
Parameters: from tissue; host or cells: whole living Sprague-Dawley rat; the receptor is the animal's own (renal, by own knowledge)
Details: Sprague-Dawley (CD) rats, 10 mg/kg oral, vs. control, urine collected four hours
Assay metric: Urine Volume (% decrease)
The reply must contain the numeric value and, after it, the unit.

Sample records with Urine Volume (% decrease):
* Cc1ccn(-c2ccc(C(=O)N3Cc4cccn4Cc4ccccc43)c(Cl)n2)n1 [Example 100] | 24%
* Cc1ccn(-c2ccc(C(=O)N3Cc4ccnn4Cc4ccccc43)c(Cl)c2)n1 [Example 116] | 66%
* NC(=O)c1ccc(C(=O)N2Cc3cccn3Cc3ccccc32)c(Cl)c1 [Example 79] | 38%
* Cc1noc(-c2ccc(C(=O)N3Cc4cccn4Cc4ccccc43)cc2)n1 [Example 52] | 66%
* Cc1nc(-c2ccc(C(=O)N3Cc4cccn4Cc4ccccc43)cc2)n(C)n1 [Example 51] | 72%

Looking up O=C(c1ccc(-n2cncn2)cc1Cl)N1Cc2cccn2Cc2ccccc21 [Example 14] , I found its Urine Volume (% decrease) recorded as 86%

What the record says about O=C(c1ccc(-c2ccn(C(=O)C3CC3)n2)cc1)N1Cc2cccn2Cc2ccccc21 [Example 32] : Urine Volume (% decrease) is 77%

Sure, the documented Urine Volume (% decrease) for CC(=O)c1ccc(C(=O)N2Cc3cccn3Cc3ccccc32)cc1 [Example 22] is 80%

Urine Volume (% decrease) measured on Cn1cc(-c2ccc(C(=O)N3Cc4cccn4Cc4ccccc43)c(Cl)c2)cn1 [Example 115] = 66%

---

Biological target: Vasopressin V2 (Rattus norvegicus)
Assay: Vasopressin V2 agonist effects in normal conscious water-loaded rats
Format: in vivo
Parameters: from tissue; host or cells: whole living Sprague-Dawley rat; the receptor is the animal's own (renal, by own knowledge)
Settings: Sprague-Dawley (CD) rats, 10 mg/kg oral, change in osmolality as percent of control
Please note: Osmolality (% Increase) exactly at 300% is false. Only values below 300% get true.

* O=C(c1ccc(-c2nnn[nH]2)cc1Cl)N1Cc2cccn2Cc2ccccc21 [Example 86] | true
* O=C(c1ccc(-c2ccn(C(=O)c3ccc(F)cc3Cl)n2)cc1)N1Cc2cccn2Cc2ccccc21 [Example 37] | false
* Cc1ccn(-c2ccc(C(=O)N3Cc4cccn4Cc4ccccc43)c(Cl)c2)n1 (single isomer, unassigned) [Example 9A] | false
* CCCC(=O)n1ccc(-c2ccc(C(=O)N3Cc4cccn4Cc4ccccc43)cc2)n1 [Example 33] | false
* Cc1ccn(-c2ccc(C(=O)N3Cc4ccc(C)n4Cc4ccccc43)c(Cl)c2)n1 [Example 18] | true

Inquiry: Please state whether Osmolality (% Increase) is below 300% for O=C(c1ccc(-n2ccc(C(F)(F)F)n2)cc1Cl)N1Cc2cccn2Cc2ccccc21 [Example 13]
Reply text: true

Inquiry: Please let me know if Cn1nccc1-c1ccc(C(=O)N2Cc3ccnn3Cc3ccccc32)cc1 [Example 120B] shows Osmolality (% Increase) below 300%.
Reply text: true

Inquiry: Does the reported Osmolality (% Increase) of the following compound sit strictly below 300%? O=C(c1ccc(-c2cc[nH]n2)cc1)N1Cc2cccn2Cc2ccccc21 [Example 24]
Reply text: true

Inquiry: Does the reported Osmolality (% Increase) of the following compound sit strictly below 300%? Cc1ccn(-c2ccc(C(=O)N3Cc4nnnn4Cc4ccccc43)c(Cl)c2)n1 [Example 117]
Reply text: false

Inquiry: Take the compound Cc1cnn(-c2ccc(C(=O)N3Cc4cccn4Cc4ccccc43)c(Cl)n2)c1 [Example 101] and say whether its Osmolality (% Increase) is less than 300%.
Reply text: false

---

Molecular target: UniProt Q00788
Assay: Vasopressin V2 agonist effects in normal conscious water-loaded rats
Format: in vivo
Parameters: from tissue; host or cells: whole living Sprague-Dawley rat; the receptor is the animal's own (renal, by own knowledge)
Conditions: Sprague-Dawley (CD) rats, 10 mg/kg oral, vs. control, urine collected four hours
// label = Criterion met if Urine Volume (% decrease) is not less than 70%, otherwise Criterion not met

Inquiry: Test whether the molecule Cc1ccn(-c2ccc(C(=O)N3Cc4cccn4Cc4ccccc43)cc2)n1 [Example 59] records Urine Volume (% decrease) of 70% or higher.
Reply text: Criterion met

Inquiry: Exam item: decide whether the reported Urine Volume (% decrease) for Cc1n[nH]c(-c2ccc(C(=O)N3Cc4cccn4Cc4ccccc43)cc2)n1 [Example 50] is at least 70%.
Reply text: Criterion not met

Inquiry: Decide: Urine Volume (% decrease) of CCCn1ccc(-c2ccc(C(=O)N3Cc4cccn4Cc4ccccc43)cc2)n1 [Example 27] >= 70%?
Reply text: Criterion met

---

Target: Vasopressin V2 (Rattus norvegicus, UniProt Q00788)
Test: Vasopressin V2 agonist effects in normal conscious water-loaded rats
Type: in vivo
Parameters: from tissue; host or cells: whole living Sprague-Dawley rat; the receptor is the animal's own (renal, by own knowledge)
Details: Sprague-Dawley (CD) rats, 10 mg/kg oral, vs. control, urine collected four hours
Reported Urine Volume (% decrease) values for a set of compounds
Provide the reading as a plain figure in %.

* Cc1ccn(-c2ccc(C(=O)N3Cc4cccn4Cc4ccccc43)c(Cl)c2)n1 (single isomer, unassigned) | 70
* Cc1ccn(-c2ccc(C(=O)N3Cc4ccc(Br)n4Cc4ccccc43)c(Cl)c2)n1 | 68

// field: Urine Volume (% decrease); key: "O=C(c1ccc(-c2ccn(C(=O)c3ccc(F)cc3Cl)n2)cc1)N1Cc2cccn2Cc2ccccc21" ; value = 71

// data source = patent US6831079B1
